Reference source: paper PMC7819943

Measured binding signal of individual entries
# assay-system: OsWOX13 (Oryza sativa, UniProt Q5QMM3 1-267)
# Sequence: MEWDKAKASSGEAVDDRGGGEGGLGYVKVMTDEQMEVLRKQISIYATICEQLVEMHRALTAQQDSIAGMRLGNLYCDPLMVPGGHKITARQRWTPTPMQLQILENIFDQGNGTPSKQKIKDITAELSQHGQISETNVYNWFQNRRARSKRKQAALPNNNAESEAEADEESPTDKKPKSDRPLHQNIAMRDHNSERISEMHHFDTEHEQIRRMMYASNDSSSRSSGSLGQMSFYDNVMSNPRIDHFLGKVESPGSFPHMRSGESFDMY
# method-description: protein-binding microarray (RPBM); PBS, 2% BSA, 51.3 ng/ul salmon testes DNA, 50 uM zinc acetate, 200 nM TF, 25 C, 1 h; high values mean tight binding
# stated-conditions: protein: recombinant; tags: N-terminal polyhistidine and DsRed monomer fusion (pET32a); label: CyDye5-dUTP incorporated in the synthesized complementary strand; 3' TTTTT single-stranded linker to array surface; dsDNA, one strand shown
The full ranking holds about 35,000 sequences; the median of “fluorescence intensity (a.u.)” is about 10,000, and the highest 2% start at about 52,000. What follows is part of a selection rich in the highest values, with near analogues and random picks from the rest.
readout: binding signal

[[record]]
sequence_text = "TAATACTTAATTAATTATATGCTAAATGCTTCTTCGTTTTCGGAGTCACCTAGTGCAG"
readout = "binding signal"
reading = "27300 fluorescence intensity (a.u.)"

[[record]]
sequence_text = "TAGCTAATTCTTAATTAATTATACGCTAATGAATCACTTTCGGAGTCACCTAGTGCAG"
readout = "binding signal"
reading = "23900 fluorescence intensity (a.u.)"

[[record]]
sequence_text = "ATGAAGAAACTGTTGGTGATTTGACAAGTAGGCTTGGTTCCGGAGTCACCTAGTGCAG"
readout = "binding signal"
reading = "6530 fluorescence intensity (a.u.)"

[[record]]
sequence_text = "CCTCCTGTTAACTCGTATCACCTCCCTCCCTCACTGAACCCGGAGTCACCTAGTGCAG"
readout = "binding signal"
reading = "7850 fluorescence intensity (a.u.)"

[[record]]
sequence_text = "ATGACAGCAATTCCGATATCTAATAAGATTGAAAATATTGCGGAGTCACCTAGTGCAG"
readout = "binding signal"
reading = "14800 fluorescence intensity (a.u.)"

[[record]]
sequence_text = "GGAGTGATTAAATTAGTTAATTAGTTAATAATCCCATTGACGGAGTCACCTAGTGCAG"
readout = "binding signal"
reading = "56800 fluorescence intensity (a.u.)"

[[record]]
sequence_text = "ACACTAAATTATTCTACCCACAAATTAAATAATTGAAATACGGAGTCACCTAGTGCAG"
readout = "binding signal"
reading = "9290 fluorescence intensity (a.u.)"

[[record]]
sequence_text = "GGGCATAAATTTTGGTGATTTTCGGTTTTCTGAAGTTCCTCGGAGTCACCTAGTGCAG"
readout = "binding signal"
reading = "7130 fluorescence intensity (a.u.)"

[[record]]
sequence_text = "GCTTGATGACCAAGTATATATAAACATGTCAGTGATTATTCGGAGTCACCTAGTGCAG"
readout = "binding signal"
reading = "5670 fluorescence intensity (a.u.)"

